- Test system: T1, cMet-Fc fusion protein (extracellular domain of the cMet receptor expressed as an Fc-fusion protein) (human, UniProt P08581 25-932)
- T1 construct: extracellular domain; also called soluble cMet-Fc-fusion protein; soluble cMet receptor; not shown: Fc part
- T1 sequence (P08581 25-932): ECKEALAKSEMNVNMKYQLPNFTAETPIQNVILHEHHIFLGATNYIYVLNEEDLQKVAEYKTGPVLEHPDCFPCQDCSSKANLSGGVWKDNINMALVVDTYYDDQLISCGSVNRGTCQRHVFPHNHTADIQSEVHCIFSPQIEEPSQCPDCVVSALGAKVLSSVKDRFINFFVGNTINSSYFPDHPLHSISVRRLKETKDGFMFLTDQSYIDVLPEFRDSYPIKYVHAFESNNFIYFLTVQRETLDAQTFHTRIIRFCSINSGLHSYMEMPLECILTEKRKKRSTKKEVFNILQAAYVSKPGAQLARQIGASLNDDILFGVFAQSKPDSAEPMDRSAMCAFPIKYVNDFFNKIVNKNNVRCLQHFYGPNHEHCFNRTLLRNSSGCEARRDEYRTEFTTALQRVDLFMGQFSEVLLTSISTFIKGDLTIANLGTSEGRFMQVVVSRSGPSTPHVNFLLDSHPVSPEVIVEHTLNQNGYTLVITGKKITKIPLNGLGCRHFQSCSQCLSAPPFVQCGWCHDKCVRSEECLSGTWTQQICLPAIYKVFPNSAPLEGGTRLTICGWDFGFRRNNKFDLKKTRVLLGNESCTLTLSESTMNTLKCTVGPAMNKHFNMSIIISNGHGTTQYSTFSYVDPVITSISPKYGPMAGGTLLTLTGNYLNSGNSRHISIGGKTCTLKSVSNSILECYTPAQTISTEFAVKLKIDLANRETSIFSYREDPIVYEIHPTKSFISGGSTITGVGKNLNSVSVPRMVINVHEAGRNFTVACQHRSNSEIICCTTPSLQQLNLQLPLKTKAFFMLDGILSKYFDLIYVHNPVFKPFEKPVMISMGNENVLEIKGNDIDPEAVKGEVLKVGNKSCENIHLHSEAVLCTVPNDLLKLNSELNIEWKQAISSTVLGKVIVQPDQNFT
- Assay protocol: phage ELISA, cMet-Fc vs TRAIL-Fc
- Procedure: Protein phage ELISAs using peptide-displaying phage isolates from the various selection campaigns were performed to determine specificity of the peptides for cMet versus an unrelated Fc-fusion protein (TRAIL-Fe). […] The plates were incubated for 2 hours at room temperature and washed with PBST. cMet-binding peptide-displaying phage were detected using an HRP-conjugated anti-M13 antibody.
Endpoint: Protein ELISA (fold over background) (fold)

binder="AQWPHDGLVHWGEVIMLRF [117-F04 peptide-displaying phage (SEQ ID NO: 479)]" quantitative_result=3.3
binder="AQSDHDHAHWGVKHWPFRRYQ [93-B10 peptide-displaying phage (SEQ ID NO: 482)]" quantitative_result=3.1
binder="AGIWFCNNEEKSCWAYGT [471-A11 peptide-displaying phage (SEQ ID NO: 040)]" quantitative_result=3
binder="GSEFECTGWPEFRCYEYAP [548-C10 peptide-displaying phage (SEQ ID NO: 100)]" quantitative_result=8.4
binder="AGGHWCLELKHLCPPYGT [465-B06 peptide-displaying phage (SEQ ID NO: 044)]" quantitative_result=4.1
binder="AGLLGCWDMPMECTGEGT [465-B11 peptide-displaying phage (SEQ ID NO: 036)]" quantitative_result=3.6
binder="AQFDRYWHFAWMDVSFSSGQSG [92-B05 peptide-displaying phage (SEQ ID NO: 465)]" quantitative_result=4.3
